Molecular target: TYK2 (Homo sapiens)
Sequence (P29597 whole entry): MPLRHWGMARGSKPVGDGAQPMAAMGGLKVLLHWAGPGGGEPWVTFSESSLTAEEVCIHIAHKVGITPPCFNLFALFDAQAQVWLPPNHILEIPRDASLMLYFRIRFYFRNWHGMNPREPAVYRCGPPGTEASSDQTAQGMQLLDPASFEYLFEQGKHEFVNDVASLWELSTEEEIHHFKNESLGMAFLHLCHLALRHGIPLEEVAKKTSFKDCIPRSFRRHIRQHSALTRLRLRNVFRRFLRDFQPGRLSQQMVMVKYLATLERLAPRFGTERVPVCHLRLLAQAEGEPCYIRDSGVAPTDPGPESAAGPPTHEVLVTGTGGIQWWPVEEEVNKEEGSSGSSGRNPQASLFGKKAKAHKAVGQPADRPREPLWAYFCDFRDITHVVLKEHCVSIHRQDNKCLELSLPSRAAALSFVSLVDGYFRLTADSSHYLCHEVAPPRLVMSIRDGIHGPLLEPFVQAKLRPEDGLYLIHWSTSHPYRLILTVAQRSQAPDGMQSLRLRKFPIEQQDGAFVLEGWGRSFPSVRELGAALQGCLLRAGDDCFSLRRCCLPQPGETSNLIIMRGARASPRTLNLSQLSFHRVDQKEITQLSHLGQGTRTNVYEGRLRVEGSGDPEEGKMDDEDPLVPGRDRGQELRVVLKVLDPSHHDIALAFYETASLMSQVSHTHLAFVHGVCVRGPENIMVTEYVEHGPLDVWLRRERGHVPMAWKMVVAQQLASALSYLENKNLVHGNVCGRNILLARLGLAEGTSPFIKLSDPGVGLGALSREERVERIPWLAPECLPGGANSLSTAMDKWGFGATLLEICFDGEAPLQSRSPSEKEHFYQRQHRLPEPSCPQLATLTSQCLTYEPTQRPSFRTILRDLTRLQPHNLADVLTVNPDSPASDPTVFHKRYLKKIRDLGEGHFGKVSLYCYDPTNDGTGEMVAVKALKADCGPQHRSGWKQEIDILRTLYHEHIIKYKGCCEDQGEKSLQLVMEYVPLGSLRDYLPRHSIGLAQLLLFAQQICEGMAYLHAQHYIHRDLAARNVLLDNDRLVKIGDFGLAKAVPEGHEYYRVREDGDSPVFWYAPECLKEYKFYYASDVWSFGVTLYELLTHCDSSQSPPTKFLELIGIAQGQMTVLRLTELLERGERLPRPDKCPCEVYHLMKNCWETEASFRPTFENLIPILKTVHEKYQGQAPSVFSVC
Assay: TYK2 kinase inhibition (Table A1)
Assay type: biochemical
Structures can show the parent of a compound that is named as a salt.
attribute-measured: IC50 (nM)

(A) CCNC(=O)N1CCC(CC(=O)Nc2ccc3cc2CCc2cccc(c2)Nc2ncc(Cl)c(n2)N3)CC1 [Example A57, trifluoroacetate]
(B) O=C(COc1ccc2cc1CCc1cccc(c1)Nc1ncc(Cl)c(n1)N2)N1CCN(C(=O)Nc2ccc(Cl)nc2)CC1 [Example A10]
(C) O=C(Cc1ccco1)Nc1ccc2cc1CCc1cccc(c1)Nc1ncc(Cl)c(n1)N2 [Example C36, trifluoroacetate]
Rank the compounds listed above in increasing order of IC50. Thanks in advance for listing the labels in the requested order.
A, B, C

* * *

Biological target: human JAK3 (a.a. 781-1124) (Homo sapiens, UniProt P52333)
Construct: JAK3 (a.a. 781-1124); His tag (N); made in house; host or cells: insect cells (baculovirus)
Sequence (P52333 781-1124): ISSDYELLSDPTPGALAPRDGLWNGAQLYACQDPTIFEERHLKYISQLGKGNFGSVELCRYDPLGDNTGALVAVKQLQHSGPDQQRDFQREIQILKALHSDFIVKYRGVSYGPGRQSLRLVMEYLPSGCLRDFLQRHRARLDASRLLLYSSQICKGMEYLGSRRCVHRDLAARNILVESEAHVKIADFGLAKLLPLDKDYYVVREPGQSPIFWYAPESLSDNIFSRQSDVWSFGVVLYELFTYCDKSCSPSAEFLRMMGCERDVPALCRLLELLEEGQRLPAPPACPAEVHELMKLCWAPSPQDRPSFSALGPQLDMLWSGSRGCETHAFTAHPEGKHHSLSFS
Assay: In vitro JAK kinase assay (HTRF, phosphorylation of a biotinylated peptide), JAK3
Assay type: biochemical
Settings: method AA1 (3 μM ATP) or AA2 (1000 μM ATP), not stated per value
Structures can show the parent of a compound that is named as a salt.
attribute-measured: IC50 (nM)

O=C(Nc1ccc2cc1CCc1cccc(c1)Nc1ncc(Cl)c(n1)N2)C1CCN(C(=O)c2ccco2)CC1 [Example A32, trifluoroacetate]    35
CC(C)NC(=O)N1CCC(CC(=O)Nc2ccc3cc2CCc2cncc(c2)Nc2ncc(Cl)c(n2)N3)CC1 [Example A99, bis(trifluoroacetate)]    133
O=C(Nc1ccc2cc1CCc1cccc(c1)Nc1ncc(Cl)c(n1)N2)[C@@H]1CCCN1C(=O)Nc1ccccc1 [Example A69, trifluoroacetate]    16
Clc1cnc2nc1Nc1ccc(OC3CCCC3)c(c1)CCc1cccc(c1)N2 [Example A14, trifluoroacetate]    144
O=C(CC1CCN(C(=O)c2nc[nH]n2)CC1)Nc1ccc2cc1CCc1cncc(c1)Nc1ncc(Cl)c(n1)N2 [Example A136, bis(trifluoroacetate)]    57
O=C(Nc1ccc2cc1CCc1cccc(c1)Nc1ncc(Cl)c(n1)N2)C1CCN(C(=O)Cc2ccccc2)CC1 [Example A35, trifluoroacetate]    82
O=C(COc1ccc2cc1CCc1cccc(c1)Nc1ncc(Cl)c(n1)N2)Nc1ccccc1 [Example A18, trifluoroacetate]    23
Oc1cc2cc(c1)Nc1nc(ncc1Cl)Nc1cccc(c1)CC2 [Example A22, trifluoroacetate]    10

(A) NCC(=O)Nc1ccc2cc1CCc1cccc(c1)Nc1ncc(Cl)c(n1)N2 [Example A107, bis(trifluoroacetate)]
(B) CC(C)S(=O)(=O)c1ccc2cc1Nc1nc(ncc1Cl)Nc1cccc(c1)CC2 [Example A8, trifluoroacetate]
Which value of IC50 is greater, the one for A or the one for B ? Pick one and reply with its label.
B

* * *

Target: human JAK2 (a.a. 828-1132) (Homo sapiens)
Construct: JAK2 (a.a. 828-1132); His tag (N); made in house; host or cells: insect cells (baculovirus)
Experiment: In vitro JAK kinase assay (HTRF, phosphorylation of a biotinylated peptide), JAK2
Assay type: biochemical
Settings: method AA1 (30 μM ATP) or AA2 (1000 μM ATP), not stated per value
attribute-measured: IC50 (nM)

(I) O=C(CC1CCN(C(=O)c2cnccn2)CC1)Nc1ccc2cc1CCc1cncc(c1)Nc1ncc(Cl)c(n1)N2 [Example A102, tris(trifluoroacetate)]
(II) O=C(CC1CCN(C(=O)Nc2cccc(F)c2)CC1)Nc1ccc2cc1CCc1cncc(c1)Nc1ncc(Cl)c(n1)N2 [Example A147, bis(trifluoroacetate)]
Lab note: check whether I or II has the lower measured IC50. Pick one and reply with its label.
II

* * *

Target: human JAK3 (a.a. 781-1124) (Homo sapiens, UniProt P52333)
Construct: JAK3 (a.a. 781-1124); His tag (N); made in house; host or cells: insect cells (baculovirus)
Test: In vitro JAK kinase assay (HTRF, phosphorylation of a biotinylated peptide), JAK3
Assay type: biochemical
Details: Table D1
pIC50: −log10 of the molar value. Structures can show the parent of a compound that is named as a salt.
attribute-measured: pIC50

As a guide, the following entries are already answered.
CC(=O)N1CCC[C@@H](CC(=O)Nc2ccc3cc2CCc2cncc(c2)Nc2ncc(Cl)c(n2)N3)C1 [Example D204, bis(trifluoroacetate)]    7.00
Clc1cnc2nc1Nc1cccc(c1)SCCOc1cccc(c1)N2 [Example D11, trifluoroacetate]    7.62
Cn1c(NC(=O)c2cc3cc(c2)OCCSc2cccc(c2)Nc2nc(ncc2Cl)N3)nc2ccccc21 [Example D55, bis(trifluoroacetate)]    6.89

(A) O=C(C[C@@H]1CCCNC1)Nc1ccc2cc1CCc1cncc(c1)Nc1ncc(Cl)c(n1)N2 [Example D194]
(B) Clc1cnc2nc1Nc1cccc(c1)NCc1cccc(c1)N2 [Example D16, bis(trifluoroacetate)]
(C) CS(=O)(=O)N1CCN(c2ccc(-c3cc4cc(c3)Nc3ncc(Cl)c(n3)Nc3cccc(c3)OCC4)cn2)CC1 [Example D38, bis(trifluoroacetate)]
List these items ordered by pIC50, big to small. Thanks in advance for listing the labels in the requested order.
C, A, B
(C: 7.72, A: 6.84, B: 6.49)

* * *

Target: human JAK3 (a.a. 781-1124) (Homo sapiens, UniProt P52333)
Construct: JAK3 (a.a. 781-1124); His tag (N); made in house; host or cells: insect cells (baculovirus)
Experiment: In vitro JAK kinase assay (HTRF, phosphorylation of a biotinylated peptide), JAK3
Format: biochemical
Conditions: Table B1
Where a name gives a salt, the structure may show the parent alone.
attribute-measured: IC50 (nM)

(P) O=C(Nc1ccc2cc1CCc1cncc(c1)Nc1ncc(Cl)c(n1)N2)N[C@H]1CCNC1 [Example B25, trihydrochloride]
(Q) O=C(Nc1cc2cc(c1)Nc1nc(ncc1Cl)Nc1cccc(c1)CC2)c1ccno1 [Example B206, trifluoroacetate]
(R) O=S(=O)(Nc1ccc2cc1CCc1cccc(c1)Nc1ncc(Cl)c(n1)N2)c1cccc2cccnc12 [Example B160, bis(trifluoroacetate)]
(S) O=S(=O)(Nc1ccc2cc1CCc1cccc(c1)Nc1ncc(Cl)c(n1)N2)c1ccc(Cl)cc1 [Example B139, trifluoroacetate]
Rank the compounds listed above in increasing order of IC50. Thanks in advance for listing the labels in the requested order.
S, Q, R, P
(S: 5.1 nM, Q: 41 nM, R: 102 nM, P: 153 nM)

* * *

Biological target: human JAK1 (a.a. 837-1142) (Homo sapiens)
Construct: human JAK1 (a.a. 837-1142); His tag (N); made in house; host or cells: insect cells (baculovirus)
Sequence (P23458 849-1154): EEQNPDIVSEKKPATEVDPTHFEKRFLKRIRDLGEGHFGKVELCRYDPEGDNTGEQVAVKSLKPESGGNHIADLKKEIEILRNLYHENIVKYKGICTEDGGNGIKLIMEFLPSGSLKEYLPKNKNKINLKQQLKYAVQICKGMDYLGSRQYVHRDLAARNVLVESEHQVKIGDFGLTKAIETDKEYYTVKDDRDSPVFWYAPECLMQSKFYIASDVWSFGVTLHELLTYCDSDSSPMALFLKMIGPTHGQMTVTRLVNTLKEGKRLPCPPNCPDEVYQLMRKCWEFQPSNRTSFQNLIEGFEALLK
Assay: In vitro JAK kinase assay (HTRF, phosphorylation of a biotinylated peptide), JAK1
Format: biochemical
Details: method AA1 (90 μM ATP) or AA2 (1000 μM ATP), not stated per value; read-out: JAK1 IC50
pIC50: −log10 of the molar value. Where a name gives a salt, the structure may show the parent alone.
attribute-measured: pIC50

N#Cc1ccc(S(=O)(=O)N2CCC(CC(=O)Nc3ccc4cc3CCc3cncc(c3)Nc3ncc(Cl)c(n3)N4)CC2)cc1 [Example A199, bis(trifluoroacetate)]    7.49

(a) Cc1ccoc1C(=O)N1CCC(CC(=O)Nc2ccc3cc2CCc2cncc(c2)Nc2ncc(Cl)c(n2)N3)CC1 [Example A161, bis(trifluoroacetate)]
(b) CCNC(=O)N1CCN(C(=O)COc2ccc3cc2CCc2cccc(c2)Nc2ncc(Cl)c(n2)N3)CC1 [Example A12, trifluoroacetate]
Which value of pIC50 is greater, the one for a or the one for b ? Pick one and reply with its label.
b

* * *

Biological target: human JAK2 (a.a. 828-1132) (Homo sapiens, UniProt O60674)
Construct: JAK2 (a.a. 828-1132); His tag (N); made in house; host or cells: insect cells (baculovirus)
Sequence (O60674 828-1132): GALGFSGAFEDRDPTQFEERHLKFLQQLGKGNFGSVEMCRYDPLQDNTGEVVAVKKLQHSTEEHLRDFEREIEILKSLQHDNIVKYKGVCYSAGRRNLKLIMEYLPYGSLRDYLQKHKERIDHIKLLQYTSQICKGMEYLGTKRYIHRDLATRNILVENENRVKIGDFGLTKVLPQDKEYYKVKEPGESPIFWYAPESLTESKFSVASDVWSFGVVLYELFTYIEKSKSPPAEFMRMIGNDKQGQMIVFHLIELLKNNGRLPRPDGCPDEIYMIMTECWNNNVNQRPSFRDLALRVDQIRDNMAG
Test: In vitro JAK kinase assay (HTRF, phosphorylation of a biotinylated peptide), JAK2
Assay type: biochemical
Conditions: method AA1 (30 μM ATP) or AA2 (1000 μM ATP), not stated per value
Counter-ions that a name gives are not always drawn.
attribute-measured: IC50 (nM)

(P) Cc1oncc1C(=O)N1CCC(CC(=O)Nc2ccc3cc2CCc2cncc(c2)Nc2ncc(Cl)c(n2)N3)CC1 [Example A131, bis(trifluoroacetate)]
(Q) NS(=O)(=O)N1CCC(CC(=O)Nc2ccc3cc2CCc2cncc(c2)Nc2ncc(Cl)c(n2)N3)CC1 [Example A78, bis(trifluoroacetate)]
(R) COc1cccc(NC(=O)N2CCC(CC(=O)Nc3ccc4cc3CCc3cncc(c3)Nc3ncc(Cl)c(n3)N4)CC2)c1 [Example A153, bis(trifluoroacetate)]
Place the item with the largest IC50 first, then continue in falling order, using the list above. Thanks in advance for listing the labels in the requested order.
P, R, Q
(P: 36 nM, R: 1.1 nM, Q: 0.3 nM)

(a) N#Cc1ccc(S(=O)(=O)N2CCC(CC(=O)Nc3ccc4cc3CCc3cccc(c3)Nc3ncc(Cl)c(n3)N4)CC2)cc1 [Example A209, trifluoroacetate]
(b) O=C(CCC1CCNCC1)Nc1ccc2cc1CCc1cncc(c1)Nc1ncc(Cl)c(n1)N2
Lab note: check whether a or b has the lower measured IC50. Pick one and reply with its label.
b
